# assay remarks: Pharmacokinetic study in CD-1 mice (plasma and brain)
# Format: in vivo
# experimental conditions: male, mouse, brain, oral, IG 5 mg/kg, 2 h, read-out: Brain concentration
observation type: concentration at 2 h

What value of measured concentration at 2 h is listed for C[C@@]1(O)CC[C@H]2[C@H](CC[C@@H]3[C@@H]2CC[C@]2(C)[C@@H](C(=O)Cn4cnn(-c5cc(F)nc(F)c5)c4=O)CC[C@@H]32)C1 ?
1920 ng/g

###

# assay remarks: In vitro liver microsomal stability assay, human
# Format: in vitro ADME
# experimental conditions: Human liver microsomes; read-out: CLint(mic)
In plain terms, low microsomal CLint at 1 µM, meaning strictly below 20 µL/min/mg, gives Condition met, and everything else gives Condition not met.

Worked set:
# compound, group label
measured = [
    ("C[C@@]1(O)CC[C@H]2[C@H](CC[C@@H]3[C@@H]2CC[C@]2(C)[C@@H](C(=O)Cn4cnn(-c5cc(F)nc(F)c5)c4=O)CC[C@@H]32)C1 [Compound 41]", "Condition met"),
    ("C[C@@]1(O)CC[C@@]2(C)[C@@H](CC[C@@H]3[C@@H]2CC[C@]2(C)[C@@H](C(=O)Cn4cnn(-c5cccc(F)c5)c4=O)CC[C@@H]32)C1 [Compound 33]", "Condition met"),
    ("C[C@@]1(O)CC[C@H]2[C@H](CC[C@@H]3[C@@H]2CC[C@]2(C)[C@@H](C(=O)Cn4cnn(-c5cc(F)cc(F)c5)c4=O)CC[C@@H]32)C1 [Compound 28]", "Condition not met"),
    ("COc1cccc(-n2ncn(CC(=O)[C@H]3CC[C@H]4[C@@H]5CC[C@@H]6C[C@](C)(O)CC[C@@H]6[C@H]5CC[C@]34C)c2=O)c1 [Compound 5]", "Condition not met"),
    ("C[C@@]1(O)CC[C@H]2[C@H](CC[C@@H]3[C@@H]2CC[C@]2(C)[C@@H](C(=O)Cn4cnn(C5CCCC5)c4=O)CC[C@@H]32)C1 [Compound 29]", "Condition not met"),
    ("C[C@@]1(O)CC[C@H]2[C@H](CC[C@@H]3[C@@H]2CC[C@]2(C)[C@@H](C(=O)Cn4cnn(-c5ccccc5)c4=O)CC[C@@H]32)C1 [Compound 3]", "Condition met"),
]

Lab note: confirm whether the reported microsomal CLint at 1 µM for this compound is below 20 µL/min/mg, equality not counting. compound: C[C@@]1(O)CC[C@H]2[C@H](CC[C@@H]3[C@@H]2CC[C@]2(C)[C@@H](C(=O)Cn4cnn(-c5cccc(C#N)c5)c4=O)CC[C@@H]32)C1 [Compound 34]
Condition met

# iterate: C[C@@]1(O)CC[C@H]2[C@H](CC[C@@H]3[C@@H]2CC[C@]2(C)[C@@H](C(=O)Cn4ncn(-c5ccc(F)cc5)c4=O)CC[C@@H]32)C1 [Compound 9]
Condition not met

###

# assayed system: α4β3δ GABA receptors (α4β3δ-HEK-FlpIn-TRex stable cell strain) (Homo sapiens, UniProt P28472+P48169)
# Sequence (P48169 36-554): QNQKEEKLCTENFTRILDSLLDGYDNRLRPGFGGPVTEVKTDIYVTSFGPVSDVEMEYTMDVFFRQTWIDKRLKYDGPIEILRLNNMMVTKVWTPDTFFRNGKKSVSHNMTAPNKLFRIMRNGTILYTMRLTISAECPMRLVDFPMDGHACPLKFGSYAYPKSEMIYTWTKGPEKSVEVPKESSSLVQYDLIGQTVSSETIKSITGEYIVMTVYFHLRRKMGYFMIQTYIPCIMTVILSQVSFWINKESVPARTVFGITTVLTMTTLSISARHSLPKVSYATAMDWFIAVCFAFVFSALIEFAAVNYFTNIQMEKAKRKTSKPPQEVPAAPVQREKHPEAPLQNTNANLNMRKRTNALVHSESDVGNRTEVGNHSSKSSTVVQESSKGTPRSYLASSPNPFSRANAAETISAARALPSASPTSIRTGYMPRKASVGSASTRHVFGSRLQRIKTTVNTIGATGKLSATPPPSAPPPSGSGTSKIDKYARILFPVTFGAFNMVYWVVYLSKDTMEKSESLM
# Sequence (P28472 26-473): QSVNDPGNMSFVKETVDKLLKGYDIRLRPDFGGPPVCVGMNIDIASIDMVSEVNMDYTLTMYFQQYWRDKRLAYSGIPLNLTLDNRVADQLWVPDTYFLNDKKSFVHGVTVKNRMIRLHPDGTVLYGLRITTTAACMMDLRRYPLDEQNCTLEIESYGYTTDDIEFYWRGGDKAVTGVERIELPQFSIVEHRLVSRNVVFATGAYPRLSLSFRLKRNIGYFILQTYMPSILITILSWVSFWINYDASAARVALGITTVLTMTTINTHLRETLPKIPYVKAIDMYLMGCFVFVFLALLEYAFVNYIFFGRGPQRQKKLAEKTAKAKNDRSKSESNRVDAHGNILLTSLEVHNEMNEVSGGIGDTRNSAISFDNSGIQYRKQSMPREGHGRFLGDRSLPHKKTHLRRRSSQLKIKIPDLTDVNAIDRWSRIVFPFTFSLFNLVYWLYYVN
# Sequence (O14764 25-452 partner): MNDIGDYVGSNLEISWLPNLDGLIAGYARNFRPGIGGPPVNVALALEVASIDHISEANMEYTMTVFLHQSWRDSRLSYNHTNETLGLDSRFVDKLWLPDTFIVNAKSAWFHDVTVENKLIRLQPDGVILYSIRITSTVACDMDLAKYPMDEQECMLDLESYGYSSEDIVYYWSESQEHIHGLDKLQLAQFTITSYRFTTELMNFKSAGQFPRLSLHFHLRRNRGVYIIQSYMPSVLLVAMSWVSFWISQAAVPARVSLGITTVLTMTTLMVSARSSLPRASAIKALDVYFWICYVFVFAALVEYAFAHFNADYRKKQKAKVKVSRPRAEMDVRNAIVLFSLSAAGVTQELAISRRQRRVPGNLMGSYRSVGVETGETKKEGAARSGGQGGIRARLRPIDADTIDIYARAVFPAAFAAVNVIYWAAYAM
# assay remarks: Whole-cell patch clamp, extrasynaptic functional activity (positive allosteric regulation of GABA-induced current)
# experimental conditions: patch clamp -60 mV, GABA at EC10-20, α4β3δ-HEK-FlpIn-TRex cells
observation type: EC50 (nM)
Expressed in nM, but write only the number.

Please review the entries below; each comes with its answer.
# compound, EC50 / nM
data = [
    ("C[C@@]1(O)CC[C@H]2[C@H](CC[C@@H]3[C@@H]2CC[C@]2(C)[C@@H](C(=O)Cn4cnn(-c5cccc(F)n5)c4=O)CC[C@@H]32)C1 [Compound 20]", 360),
    ("Cn1ncn(CC(=O)[C@H]2CC[C@H]3[C@@H]4CC[C@@H]5C[C@](C)(O)CC[C@@H]5[C@H]4CC[C@]23C)c1=O [Compound 6]", 305),
    ("C[C@@]1(O)CC[C@H]2[C@H](CC[C@@H]3[C@@H]2CC[C@]2(C)[C@@H](C(=O)Cn4cnn(-c5ccc(F)cc5)c4=O)CC[C@@H]32)C1 [Compound 4]", 170),
    ("C[C@@]1(O)CC[C@H]2[C@H](CC[C@@H]3[C@@H]2CC[C@]2(C)[C@@H](C(=O)Cn4cnn(-c5nccs5)c4=O)CC[C@@H]32)C1 [Compound 32]", 126),
    ("C[C@@]1(O)CC[C@H]2[C@H](CC[C@@H]3[C@@H]2CC[C@]2(C)[C@@H](C(=O)Cn4cnn(-c5ccnc(F)c5)c4=O)CC[C@@H]32)C1 [Compound 21]", 116),
]

Now consider a different compound.
What value of measured EC50 is listed for C[C@@]1(O)CC[C@@]2(C)[C@@H](CC[C@@H]3[C@@H]2CC[C@]2(C)[C@@H](C(=O)Cn4cnn(-c5cccc(F)c5)c4=O)CC[C@@H]32)C1 [Compound 33] ?
96

###

# assay remarks: Pharmacokinetic study in CD-1 mice (plasma and brain)
# Type: in vivo
# experimental conditions: male, mouse, plasma, po, IG 5 mg/kg
observation type: half-life (min)
Expressed in min, but write only the number.

What value of measured half-life is listed for C[C@@]1(O)CC[C@H]2[C@H](CC[C@@H]3[C@@H]2CC[C@]2(C)[C@@H](C(=O)Cn4cnn(-c5cc(F)nc(F)c5)c4=O)CC[C@@H]32)C1 ?
990

###

# assay remarks: Pharmacokinetic study in SD rats (plasma and brain)
# Assay type: in vivo
# experimental conditions: male, rat, brain/plasma, oral, IG 24.4 μmol/kg, 30 min, read-out: Brain-to-blood ratio
observation type: Kp at 30 min
Form field (numeric): enter value without unit.

What value of measured Kp at 30 min is listed for C[C@@]1(O)CC[C@H]2[C@H](CC[C@@H]3[C@@H]2CC[C@]2(C)[C@@H](C(=O)Cn4cnn(-c5cc(F)nc(F)c5)c4=O)CC[C@@H]32)C1 ?
0.8

###

# assay remarks: In vitro liver microsomal stability assay, rat
# Assay type: in vitro ADME
# experimental conditions: Rat liver microsomes
observation type: log10 of CLint scaled at 1 µM (log10 of the value in mL/min/kg)
Form field - Quantity: CLint scaled at 1 µM; Unit: mL/min/kg; Scale: log10

# compound, log10 of CLint scaled at 1 µM
records = [
    ("C[C@@]1(O)CC[C@H]2[C@H](CC[C@@H]3[C@@H]2CC[C@]2(C)[C@@H](C(=O)Cn4cnn(-c5ccnc(OC(F)(F)F)c5)c4=O)CC[C@@H]32)C1 [Compound 38]", 1.08),
    ("C[C@@]1(O)CC[C@H]2[C@H](CC[C@@H]3[C@@H]2CC[C@]2(C)[C@@H](C(=O)Cn4cnn(-c5cccnc5)c4=O)CC[C@@H]32)C1 [Compound 2]", 2.27),
    ("C[C@@]1(O)CC[C@H]2[C@H](CC[C@@H]3[C@@H]2CC[C@]2(C)[C@@H](C(=O)Cn4ncn(-c5ccc(F)cc5)c4=O)CC[C@@H]32)C1 [Compound 9]", 2.38),
    ("C[C@@]1(O)CC[C@H]2[C@H](CC[C@@H]3[C@@H]2CC[C@]2(C)[C@@H](C(=O)Cn4cnn(-c5cc(F)cc(C#N)c5)c4=O)CC[C@@H]32)C1 [Compound 44]", 1.43),
]

Now consider a different compound.
What value of measured log10 of CLint scaled at 1 µM is listed for C[C@@]1(O)CC[C@H]2[C@H](CC[C@@H]3[C@@H]2CC[C@]2(C)[C@@H](C(=O)Cn4cnn(-c5cccc(F)n5)c4=O)CC[C@@H]32)C1 [Compound 20] ?
2.51

###

Quick list: Emax per entry.
# assayed system: α1β2γ2 GABA receptors (α1β2γ2-CHO-TRex stable cell strain) (Homo sapiens, UniProt P14867+P47870)
# Construct: expressed in transfected cells
# Sequence (P14867 28-456): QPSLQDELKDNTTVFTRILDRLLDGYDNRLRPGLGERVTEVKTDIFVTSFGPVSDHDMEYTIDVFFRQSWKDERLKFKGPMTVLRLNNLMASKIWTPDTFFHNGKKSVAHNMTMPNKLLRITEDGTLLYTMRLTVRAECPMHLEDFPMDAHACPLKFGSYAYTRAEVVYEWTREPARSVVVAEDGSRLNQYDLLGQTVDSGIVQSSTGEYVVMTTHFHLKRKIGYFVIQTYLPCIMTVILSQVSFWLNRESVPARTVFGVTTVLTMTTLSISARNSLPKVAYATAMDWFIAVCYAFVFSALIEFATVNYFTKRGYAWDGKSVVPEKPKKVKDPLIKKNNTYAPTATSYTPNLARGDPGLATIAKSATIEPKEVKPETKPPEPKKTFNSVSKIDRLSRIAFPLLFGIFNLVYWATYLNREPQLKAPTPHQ
# Sequence (P47870 25-512 limits assumed): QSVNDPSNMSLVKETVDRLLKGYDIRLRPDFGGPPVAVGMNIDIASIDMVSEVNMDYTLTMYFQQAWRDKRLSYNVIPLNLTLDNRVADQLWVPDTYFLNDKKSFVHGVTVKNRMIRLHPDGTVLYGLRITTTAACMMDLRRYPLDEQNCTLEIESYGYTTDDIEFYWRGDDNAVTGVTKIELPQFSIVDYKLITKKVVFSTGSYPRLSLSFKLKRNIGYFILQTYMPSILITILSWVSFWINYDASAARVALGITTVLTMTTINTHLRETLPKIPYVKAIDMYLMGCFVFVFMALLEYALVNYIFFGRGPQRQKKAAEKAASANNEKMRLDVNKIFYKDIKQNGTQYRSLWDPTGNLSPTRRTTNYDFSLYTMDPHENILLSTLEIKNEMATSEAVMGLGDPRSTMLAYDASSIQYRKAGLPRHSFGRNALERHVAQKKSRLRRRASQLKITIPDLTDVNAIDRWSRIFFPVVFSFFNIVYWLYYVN
# Sequence (P18507 40-475 partner): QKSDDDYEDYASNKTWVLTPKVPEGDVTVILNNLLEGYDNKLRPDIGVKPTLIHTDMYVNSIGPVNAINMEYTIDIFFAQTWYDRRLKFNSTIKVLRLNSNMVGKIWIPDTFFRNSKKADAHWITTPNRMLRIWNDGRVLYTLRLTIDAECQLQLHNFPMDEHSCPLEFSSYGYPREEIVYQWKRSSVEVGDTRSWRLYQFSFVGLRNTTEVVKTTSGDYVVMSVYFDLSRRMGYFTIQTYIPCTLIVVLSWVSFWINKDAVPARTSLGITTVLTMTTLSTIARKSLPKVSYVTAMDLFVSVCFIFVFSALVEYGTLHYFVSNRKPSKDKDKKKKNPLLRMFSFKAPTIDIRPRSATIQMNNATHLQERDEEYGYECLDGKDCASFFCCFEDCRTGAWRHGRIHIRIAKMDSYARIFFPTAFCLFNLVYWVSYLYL
# assay remarks: Whole-cell patch clamp, intrasynaptic functional activity (positive allosteric regulation of GABA-induced current)
# Assay type: cell-based
# experimental conditions: patch clamp -60 mV, GABA at EC10-20, α1β2γ2-CHO-TRex cells
Expressed in %, but write only the number.

Please review the entries below; each comes with its answer.
# smiles code, observation type, reported result
rows = [
    ("C[C@@]1(O)CC[C@H]2[C@H](CC[C@@H]3[C@@H]2CC[C@]2(C)[C@@H](C(=O)Cn4cnn(-c5cccc(F)c5)c4=O)CC[C@@H]32)C1", "Emax", 566),
    ("COc1ccc(-n2ncn(CC(=O)[C@H]3CC[C@H]4[C@@H]5CC[C@@H]6C[C@](C)(O)CC[C@@H]6[C@H]5CC[C@]34C)c2=O)cn1", "Emax", 389),
    ("C[C@@]1(O)CC[C@H]2[C@H](CC[C@@H]3[C@@H]2CC[C@]2(C)[C@@H](C(=O)Cn4cnn(CCOC(F)(F)F)c4=O)CC[C@@H]32)C1", "Emax", 576),
    ("C[C@@]1(O)CC[C@H]2[C@H](CC[C@@H]3[C@@H]2CC[C@]2(C)[C@@H](C(=O)Cn4cnn(-c5ccc(F)cc5F)c4=O)CC[C@@H]32)C1", "Emax", 692),
]

What value of measured Emax is listed for C[C@@]1(O)CC[C@H]2[C@H](CC[C@@H]3[C@@H]2CC[C@]2(C)[C@@H](C(=O)Cn4ncn(-c5ccc(F)cc5)c4=O)CC[C@@H]32)C1 ?
294

# iterate: C[C@@]1(O)CC[C@@]2(C)[C@@H](CC[C@@H]3[C@@H]2CC[C@]2(C)[C@@H](C(=O)Cn4cnn(-c5ccnc(F)c5)c4=O)CC[C@@H]32)C1
736

# iterate: C[C@@]1(O)CC[C@H]2[C@H](CC[C@@H]3[C@@H]2CC[C@]2(C)[C@@H](C(=O)Cn4cnn(-c5cccc(N)c5)c4=O)CC[C@@H]32)C1
786

# iterate: COCCn1ncn(CC(=O)[C@H]2CC[C@H]3[C@@H]4CC[C@@H]5C[C@](C)(O)CC[C@@H]5[C@H]4CC[C@]23C)c1=O
735

# iterate: C[C@@]1(O)CC[C@H]2[C@H](CC[C@@H]3[C@@H]2CC[C@]2(C)[C@@H](C(=O)Cn4cnn(-c5ccnc(OC(F)(F)F)c5)c4=O)CC[C@@H]32)C1
700

# iterate: C[C@@]1(O)CC[C@H]2[C@H](CC[C@@H]3[C@@H]2CC[C@]2(C)[C@@H](C(=O)Cn4cnn(-c5nccs5)c4=O)CC[C@@H]32)C1
763
